- Tested on: J774
- Assay: Cytotoxicity against mouse J774 cells by alamar blue assay
- Type: cell-based
Readout: IC50 (µM)

1) C=CC(CC[C@@H](C)[C@H]1CC[C@H]2[C@@H]3CC=C4C[C@@H](O)CC[C@]4(C)[C@H]3CC[C@]12C)(OO)C(C)C (stereo not given in full); 16.4
2) C=C(C)[C@@H]1CC[C@]2(C(=O)O)CC[C@]3(C)[C@H](CC[C@@H]4[C@@]5(C)CC[C@H](O)C(C)(C)[C@@H]5CC[C@]43C)[C@@H]12 [BETULINIC ACID]; 44
3) CC1(C)CC[C@]2(CO)CC[C@]3(C)C(=CC[C@@H]4[C@@]5(C)CC[C@H](O)C(C)(C)[C@@H]5CC[C@]43C)[C@@H]2C1 [ERYTHRODIOL]; 50.3
4) C[C@H]1[C@H](C)CC[C@]2(C(=O)O)CC[C@]3(C)C(=CC[C@@H]4[C@@]5(C)CC[C@H](O)C(C)(C)[C@@H]5CC[C@]43C)[C@H]12 [URSOLIC ACID]; 13.1

---

Quick reference for log10(IC50) among some molecules
- Test system: J774
- Assay: Cytotoxicity against mouse J774 cells by alamar blue assay
- Format: cell-based
Readout: log10(IC50) (log10 of the value in µM)

1) C[C@H]1[C@H](C)CC[C@]2(CO)CC[C@]3(C)C(=CC[C@@H]4[C@@]5(C)CC[C@H](O)C(C)(C)[C@@H]5CC[C@]43C)[C@H]12; 2.19
2) C=C(C)[C@@H]1CC[C@]2(CO)CC[C@]3(C)[C@H](CC[C@@H]4[C@@]5(C)CC[C@H](O)C(C)(C)[C@@H]5CC[C@]43C)[C@@H]12; 1.83
3) CC1(C)CC[C@]2(C(=O)O)CC[C@]3(C)C(=CC[C@@H]4[C@@]5(C)CC[C@H](O)C(C)(C)[C@@H]5CC[C@]43C)[C@@H]2C1; 2.11
4) C[C@H]1[C@H](C)CC[C@]2(C)CC[C@]3(C)C(=CC[C@@H]4[C@@]5(C)CC[C@H](O)C(C)(C)[C@@H]5CC[C@]43C)[C@H]12; 2.11
5) COc1cc2c(c(OC)c1OC)-c1ccc(OC)c(=O)cc1[C@@H](NC(C)=O)CC2; -0.68

---

Quick reference for Ratio IC50 among some molecules
- Assay: Selectivity index, ratio of IC50 for mouse J774 cells to IC50 for Trypanosoma brucei brucei bloodstream trypomastigotes
- Assay type: functional
Readout: Ratio IC50

1. C=C(C)[C@@H]1CC[C@]2(C(=O)O)CC[C@]3(C)[C@H](CC[C@@H]4[C@@]5(C)CC[C@H](O)C(C)(C)[C@@H]5CC[C@]43C)[C@@H]12; 1.3
2. C[C@H]1[C@H](C)CC[C@]2(CO)CC[C@]3(C)C(=CC[C@@H]4[C@@]5(C)CC[C@H](O)C(C)(C)[C@@H]5CC[C@]43C)[C@H]12; 5.6
3. C[C@H]1[C@H](C)CC[C@]2(C(=O)O)CC[C@]3(C)C(=CC[C@@H]4[C@@]5(C)CC[C@H](O)C(C)(C)[C@@H]5CC[C@]43C)[C@H]12; 6
4. C=CC(CC[C@@H](C)[C@H]1CC[C@H]2[C@@H]3CC=C4C[C@@H](O)CC[C@]4(C)[C@H]3CC[C@]12C)(OO)C(C)C (stereo not given in full); 5.2

---

- Assay: Selectivity index, ratio of IC50 for mouse J774 cells to IC50 for Trypanosoma brucei brucei bloodstream trypomastigotes
- Format: functional
Readout: Ratio IC50

1. C=C(C)[C@@H]1CC[C@]2(CO)CC[C@]3(C)[C@H](CC[C@@H]4[C@@]5(C)CC[C@H](O)C(C)(C)[C@@H]5CC[C@]43C)[C@@H]12 [BETULIN]; 7.4
2. C[C@H]1[C@H](C)CC[C@]2(C)CC[C@]3(C)C(=CC[C@@H]4[C@@]5(C)CC[C@H](O)C(C)(C)[C@@H]5CC[C@]43C)[C@H]12; 1.1
3. CC1(C)CC[C@]2(CO)CC[C@]3(C)C(=CC[C@@H]4[C@@]5(C)CC[C@H](O)C(C)(C)[C@@H]5CC[C@]43C)[C@@H]2C1 [ERYTHRODIOL]; 4.2
4. CC1(C)CC[C@]2(C(=O)O)CC[C@]3(C)C(=CC[C@@H]4[C@@]5(C)CC[C@H](O)C(C)(C)[C@@H]5CC[C@]43C)[C@@H]2C1 [OLEANOLIC_ACID]; 20.6

---

- Test system: J774
- Assay: Cytotoxicity against mouse J774 cells by alamar blue assay
- Type: cell-based
Readout: IC50

1) CC1(C)CC[C@]2(C)CC[C@]3(C)C(=CC[C@@H]4[C@@]5(C)CC[C@H](O)C(C)(C)[C@@H]5CC[C@]43C)[C@@H]2C1 [beta-AMYRIN]; > 234 µM
2) C=CC(O)(CC[C@@H](C)[C@H]1CC[C@H]2[C@@H]3CC=C4C[C@@H](O)CC[C@]4(C)[C@H]3CC[C@]12C)C(C)C (stereo partly specified) [SARINGOSTEROL]; > 233 µM
3) C=C(C)[C@@H]1CC[C@]2(C)CC[C@]3(C)[C@H](CC[C@@H]4[C@@]5(C)CC[C@H](O)C(C)(C)[C@@H]5CC[C@]43C)[C@@H]12 [LUPEOL]; > 234 µM
4) C=C(C)[C@@H](CC)CC[C@@H](C)[C@H]1CC[C@H]2[C@@H]3CC=C4C[C@@H](O)CC[C@]4(C)[C@H]3CC[C@]12C [CLEROSTEROL]; > 242 µM
5) CC[C@H](CC[C@@H](C)[C@H]1CC[C@H]2[C@@H]3CC[C@H]4C[C@@H](O)CC[C@]4(C)[C@H]3CC[C@]12C)C(C)C [STIGMASTANOL]; > 240 µM
6) CC[C@H](CC[C@@H](C)[C@H]1CC[C@H]2[C@@H]3CC=C4C[C@@H](O)CC[C@]4(C)[C@H]3CC[C@]12C)C(C)C [BETA-SITOSTEROL]; > 241 µM

---

- Assay: Selectivity index, ratio of IC50 for mouse J774 cells to IC50 for Trypanosoma brucei brucei bloodstream trypomastigotes
- Assay type: functional
Quick reference for Ratio IC50 among some compounds
Readout: Ratio IC50

1) C=C(C)[C@@H](CC)CC[C@@H](C)[C@H]1CC[C@H]2[C@@H]3CC=C4C[C@@H](O)CC[C@]4(C)[C@H]3CC[C@]12C [CLEROSTEROL]; >1.9
2) C=CC(O)(CC[C@@H](C)[C@H]1CC[C@H]2[C@@H]3CC=C4C[C@@H](O)CC[C@]4(C)[C@H]3CC[C@]12C)C(C)C (some centres undefined) [SARINGOSTEROL]; >30.3
3) CC[C@H](/C=C/[C@@H](C)[C@H]1CC[C@H]2[C@@H]3CC=C4C[C@@H](O)CC[C@]4(C)[C@H]3CC[C@]12C)C(C)C [STIGMASTEROL]; >1.8
4) C=C(C)[C@@H]1CC[C@]2(C)CC[C@]3(C)[C@H](CC[C@@H]4[C@@]5(C)CC[C@H](O)C(C)(C)[C@@H]5CC[C@]43C)[C@@H]12 [LUPEOL]; >5.2
